- test_details: qHTS Assay for Lipid Storage Modulators in Drosophila S3 Cells;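 further: cells counted by Cell Tracker Red CMTPX staining in the red channel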
- condition_parameters: BODIPY lipid droplet fluorescence, 18-24 h, cells fed with added oleic acid; measured here: cell count max response
In all, about 320,000 compounds went through this assay and about 2,100 (0.66%) were called active. About 53% were inconclusive and are not listed. What follows is part of a selection rich in actives, with near analogues and random picks from the rest.
readout_kind: cell number change (%)

[
  {
    "compound": "Cc1nn(CC(=O)Nc2ccc(Cl)c(S(=O)(=O)N(C)C)c2)c(C)c1[N+](=O)[O-]",
    "endpoint_value": -5.49
  },
  {
    "compound": "CC(C)(C)NC(=O)NC(=O)COC(=O)C1=COCCO1",
    "endpoint_value": -19.1
  },
  {
    "compound": "CCOc1ccc(-c2cc(CCCC(=O)NCc3ccco3)no2)cc1",
    "endpoint_value": 7.38
  },
  {
    "compound": "O=c1nc(/C=C/c2ccccc2C(F)(F)F)cc(C(F)(F)F)[nH]1",
    "endpoint_value": -22.9
  },
  {
    "compound": "O=C(CS(=O)(=O)c1c[nH]c2ccccc12)Nc1ccc(F)cc1",
    "endpoint_value": 1.05
  },
  {
    "compound": "COc1ccccc1NC(=O)c1ccc(-n2ccnc2)c([N+](=O)[O-])c1",
    "endpoint_value": 13
  },
  {
    "compound": "CN1C/C(=C/c2ccncc2)C(=O)/C(=C/c2ccncc2)C1",
    "endpoint_value": 15.3
  },
  {
    "compound": "O=C(CNC(=O)c1ccco1)N=Nc1c(O)[nH]c2ccc(Br)cc12",
    "endpoint_value": -9.17
  },
  {
    "compound": "CNC(=S)NNC(=O)c1ccc(=O)n(Cc2ccc(Cl)cc2Cl)c1",
    "endpoint_value": -1.09
  },
  {
    "compound": "O=C(O)c1ccc(-n2ccnc2)c([N+](=O)[O-])c1",
    "endpoint_value": 9.03
  },
  {
    "compound": "CN(C)S(=O)(=O)c1cc(NC(=O)c2ccc(-n3ccnc3)c([N+](=O)[O-])c2)ccc1Cl",
    "endpoint_value": 5.46
  },
  {
    "compound": "CC(C)N1C/C(=C/c2cccnc2)C(=O)/C(=C/c2cccnc2)C1",
    "endpoint_value": -15.1
  },
  {
    "compound": "COc1cccc(C(=O)Nc2nnc(-c3ccccc3)s2)c1",
    "endpoint_value": 0.556
  },
  {
    "compound": "Cc1cccc(OCC(=O)N=Nc2c(O)[nH]c3ccc([N+](=O)[O-])cc23)c1",
    "endpoint_value": -0.974
  },
  {
    "compound": "COc1ccc(/C=C/c2cc(C(F)(F)F)[nH]c(=O)n2)cc1OC",
    "endpoint_value": 7.45
  },
  {
    "compound": "CCCCNC(=O)CN(c1cc(C(F)(F)F)ccc1Cl)S(C)(=O)=O",
    "endpoint_value": 5.68
  },
  {
    "compound": "CC1=NN(C(N)=S)C(=O)C1N=Nc1ccccc1Cl (stereo unspecified)",
    "endpoint_value": -28.8
  },
  {
    "compound": "CCOc1cc(-c2sc(Nc3ccccc3)n[n+]2-c2ccc(F)cc2)ccc1OC",
    "endpoint_value": 8.68
  },
  {
    "compound": "Cc1c(C(=O)NCCSCc2ccccc2)cccc1[N+](=O)[O-]",
    "endpoint_value": -1.45
  },
  {
    "compound": "O=C(Nc1ccc(Cl)cn1)c1cccc(S(=O)(=O)N2CCCCC2)c1",
    "endpoint_value": 14.3
  },
  {
    "compound": "CC(C)N1C(=O)S/C(=C/c2cccnc2)C1=O",
    "endpoint_value": 16.4
  },
  {
    "compound": "Cc1nn(CC(=O)Nc2ccc(N(C)C)cc2)c(C)c1[N+](=O)[O-]",
    "endpoint_value": -14.5
  },
  {
    "compound": "COC(CCN(C)C)(c1ccccc1)c1ccccc1",
    "endpoint_value": -3.67
  },
  {
    "compound": "CCOC(=O)NC(=O)CSc1cc(C)c2cc(C)cc(C)c2n1",
    "endpoint_value": -6.06
  },
  {
    "compound": "CCCCn1c(=O)[nH]c(=O)c2c1nc(Cn1ncc(Cl)c(Cl)c1=O)n2CCC",
    "endpoint_value": -17.5
  },
  {
    "compound": "Cc1[nH]c2ccccc2c1SCC(=O)N1CCC(C)CC1",
    "endpoint_value": -5.95
  },
  {
    "compound": "COc1ccc(Br)cc1C(=O)NC(=S)Nc1ccc2[nH]c(=O)[nH]c2c1",
    "endpoint_value": -29.5
  },
  {
    "compound": "C(=N\\N1CCN(Cc2ccccc2)CC1)/c1cccnc1",
    "endpoint_value": 3.04
  },
  {
    "compound": "CC1=NN(C(N)=S)C(=O)C1N=Nc1ccccc1O (stereo unspecified)",
    "endpoint_value": -20.1
  },
  {
    "compound": "COC(C#CCCN(C)C)(c1ccccc1)c1ccccc1",
    "endpoint_value": -1.59
  },
  {
    "compound": "CCOc1cc(/C=N/NC(=O)c2ccncc2)ccc1OC(=O)c1ccccc1",
    "endpoint_value": -17.2
  },
  {
    "compound": "COC(=O)c1ccc(OC(=O)CCN2C(=O)C3C4c5ccccc5C(c5ccccc54)C3C2=O)cc1 (stereo unspecified)",
    "endpoint_value": -1.2
  },
  {
    "compound": "O=C(CNC(=O)c1ccco1)N=Nc1c(O)[nH]c2ccc([N+](=O)[O-])cc12",
    "endpoint_value": 26.6
  },
  {
    "compound": "COc1ccccc1NC(=O)NCCN1CCCCC1",
    "endpoint_value": 6.08
  },
  {
    "compound": "Cc1nn(CC(=O)Nc2ccc(S(=O)(=O)N(C)C)cc2)c(C)c1[N+](=O)[O-]",
    "endpoint_value": 9.05
  },
  {
    "compound": "CCCCn1c(-c2ccsc2)nc2c1c(=O)[nH]c(=O)n2CCC",
    "endpoint_value": 26
  }
]
